Cited source for all entries: patent US20250361322A1

- TEST TARGET: T1, human Tissue Factor on human TF-positive cells (human, UniProt P13726 33-295)
- T1 construct: also called hTF; CD142
- ASSAY PROCEDURE: flow cytometry, antibody titration on HCT-116 cells (endogenous human TF), 4-parameter fit of MFI
pEC50: −log10 of the molar value.

| BINDER | pEC50 |
| --- | --- |
| 39A (antibody, human IgG1, V domains shown, Human IgG1; also called antibody designated 39A) VH: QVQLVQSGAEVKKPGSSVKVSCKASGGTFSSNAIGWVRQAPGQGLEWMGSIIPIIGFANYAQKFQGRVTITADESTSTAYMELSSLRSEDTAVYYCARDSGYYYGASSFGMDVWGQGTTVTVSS VL: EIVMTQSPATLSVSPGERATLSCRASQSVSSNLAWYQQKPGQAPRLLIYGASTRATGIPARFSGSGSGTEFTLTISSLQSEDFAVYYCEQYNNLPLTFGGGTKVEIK | 10.41 |
